Sourced from ChEMBL document CHEMBL5291721

Molecular target: Prostaglandin G/H synthase 1 (Rattus norvegicus, UniProt Q63921); further: assay procedure not described here
Sequence (Q63921 whole entry): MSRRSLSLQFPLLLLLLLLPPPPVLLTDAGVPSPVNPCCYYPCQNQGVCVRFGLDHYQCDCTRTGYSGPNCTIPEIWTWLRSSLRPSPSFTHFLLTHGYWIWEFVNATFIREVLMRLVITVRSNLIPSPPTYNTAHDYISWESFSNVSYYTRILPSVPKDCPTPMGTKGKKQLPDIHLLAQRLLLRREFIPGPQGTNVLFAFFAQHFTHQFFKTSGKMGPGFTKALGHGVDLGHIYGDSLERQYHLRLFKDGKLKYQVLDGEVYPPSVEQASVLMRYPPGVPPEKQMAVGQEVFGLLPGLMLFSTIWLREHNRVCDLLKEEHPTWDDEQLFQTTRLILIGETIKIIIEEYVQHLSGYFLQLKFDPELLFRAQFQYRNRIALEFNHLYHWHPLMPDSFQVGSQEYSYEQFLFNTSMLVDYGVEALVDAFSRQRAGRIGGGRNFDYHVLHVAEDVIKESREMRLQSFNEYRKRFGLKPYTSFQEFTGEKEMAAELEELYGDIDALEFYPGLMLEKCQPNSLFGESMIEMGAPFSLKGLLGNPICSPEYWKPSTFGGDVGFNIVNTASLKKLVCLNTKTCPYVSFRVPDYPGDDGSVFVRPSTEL
Type: functional
OBSERVED_PROPERTY: AC50

Known AC50 results, listed for orientation:
C/C=C(/C(=C/C)c1ccc(O)cc1)c1ccc(O)cc1 [DIENESTROL]
> 30 µM
O=C(O)CCNC(=O)c1ccc(/N=N/c2ccc(O)c(C(=O)O)c2)cc1 [BALSALAZIDE]
> 30 µM
CN[C@]1(c2ccccc2Cl)CCCCC1=O [ESKETAMINE]
> 30 µM

The compound identified as CO/N=C(\C(=O)N[C@@H]1C(=O)N2C(C(=O)O)=CCS[C@H]12)c1csc(N)n1 [CEFTIZOXIME] registered its AC50 at > 30 µM

Memo: CC(C)[C@@H](C)/C=C/[C@@H](C)[C@H]1CC[C@H]2/C(=C/C=C3\C[C@@H](O)CC[C@@H]3C)CCC[C@]12C [DIHYDROTACHYSTEROL] , reported AC50: > 10 µM

// CCC(=O)O[C@]1(C(=O)CCl)[C@@H](C)C[C@H]2[C@@H]3CCC4=CC(=O)C=C[C@]4(C)[C@@]3(F)[C@@H](O)C[C@@]21C [CLOBETASOL PROPIONATE] : AC50 value = > 30 µM

In plain terms, C=C1c2cccc(O)c2C(=O)C2=C(O)[C@]3(O)C(=O)C(C(N)=O)=C(O)[C@@H](N(C)C)[C@@H]3[C@@H](O)[C@H]12 [METHACYCLINE] has a documented AC50 of > 30 µM

Lab note: measured AC50 of CC(=O)Nc1ccc(CC(=O)O)cc1 [ACTARIT] was > 30 µM

Cc1cc(=O)n(-c2ccccc2)n1C [ANTIPYRINE] yielded AC50 of > 30 µM

Lab note: measured AC50 of Cc1cc(C2CCCCC2)n(O)c(=O)c1 [CICLOPIROX] was > 3 µM

Form field AC50, entry CCCCCCCC(=O)CC[C@@H]1[C@@H](C/C=C\CCCC(=O)OC(C)C)[C@@H](O)C[C@H]1O [UNOPROSTONE ISOPROPYL] : > 30 µM
